System: OVCAR5
protocol.description: drug sensitivity score (DSS) from 5-point dose-response viability curve (DSS (area-under-curve based score)); higher = more sensitive (stronger growth inhibition or killing); extreme values may be limits of the assay
assay.setup: exposure time: 72 h; concentration range: 5 concentrations over 10,000-fold range
Overview of recorded drug sensitivity score for various compounds
Respond with the number and no other words.

| compound | drug sensitivity score |
| --- | --- |
| C#Cc1cccc(Nc2ncnc3cc4c(cc23)OCCOCCOCCO4)c1 | 4.3 |

Continue with the compound presented below.
Any idea what drug sensitivity score came out for NC(=O)NO [Hydroxyurea] on OVCAR5?
2.9

---

Measured drug sensitivity score, listed per entry.
Tested on: COV362
protocol.description: drug sensitivity score (DSS) from 5-point dose-response viability curve (DSS (area-under-curve based score)); higher = more sensitive (stronger growth inhibition or killing); extreme values may be limits of the assay
assay.setup: exposure time: 72 h; concentration range: 5 concentrations over 10,000-fold range

Worked cases, answers included:
| molecule | drug sensitivity score |
| --- | --- |
| CCN1C(=O)CNc2ncc(-c3ccc(-c4nc[nH]n4)nc3C)nc21 | 2.4 |
| NC(=O)/C(=C/n1cnc(-c2cc(C(F)(F)F)cc(C(F)(F)F)c2)n1)c1cncnc1 [Eltanexor] | 10.9 |
| O=C(NC1CCNCC1)c1n[nH]cc1NC(=O)c1c(Cl)cccc1Cl | 12 |

Form field: reported drug sensitivity score of `C[C@@H](Oc1cc(-c2cnn(C3CCNCC3)c2)cnc1N)c1c(Cl)ccc(F)c1Cl`
0

Name the recorded drug sensitivity score for `COc1cc2c(Oc3ccc(NC(=O)C4(C(=O)Nc5ccc(F)cc5)CC4)cc3F)ccnc2cc1OCCCN1CCOCC1` .
1.2

---

Measured drug sensitivity score, listed per entry for reference.
Test system: OVCAR5
protocol.description: drug sensitivity score (DSS) from 5-point dose-response viability curve (DSS (area-under-curve based score)); higher = more sensitive (stronger growth inhibition or killing); extreme values may be limits of the assay
assay.setup: exposure time: 72 h; concentration range: 5 concentrations over 10,000-fold range
Reply with just the number.

| smiles.text | drug sensitivity score |
| --- | --- |
| Nc1cc(F)ccc1NC(=O)c1ccc(CNC(=O)/C=C/c2cccnc2)cc1 | 7 |
| Nc1nc(NC2CC2)cc(-c2cccc(Cl)c2Cl)n1 | 1.9 |
| c1cc(CN2CCCNCCNCCCNCC2)ccc1CN1CCCNCCNCCCNCC1 | 0 |
| CNc1ncc2cc(-c3cc(NC(=O)NCCC(C)(C)C)c(F)cc3C)c(C)nc2n1 | 11.3 |

Would you kindly look at the next entry?
Recorded drug sensitivity score of `COc1ccc(CCc2nc3cc(-c4c(C)noc4C)ccc3n2C[C@H](C)N2CCOCC2)cc1Cl` , please.
2.9

---

Tested on: CAOV3
protocol.description: drug sensitivity score (DSS) from 5-point dose-response viability curve (DSS (area-under-curve based score)); higher = more sensitive (stronger growth inhibition or killing); extreme values may be limits of the assay
assay.setup: exposure time: 72 h; concentration range: 5 concentrations over 10,000-fold range
Output TRUE for drug sensitivity score not less than 4; output FALSE otherwise.

// known answers, use as guide
| compound | label.class |
| --- | --- |
| CC/C(=C(\c1ccccc1)c1ccc(OCCN(C)C)cc1)c1ccccc1 | FALSE |
| Cc1ccc(C(=O)Nc2cccc(C(F)(F)F)c2)cc1Nc1nc(-c2cccnc2)nc2c1cnn2C | FALSE |
| COc1cc(OC)cc(N(CCNC(C)C)c2ccc3ncc(-c4cnn(C)c4)nc3c2)c1 | FALSE |

drug sensitivity score >= 4 for `COc1cc(N2CCC(N3CCN(C)CC3)CC2)ccc1Nc1ncc(Cl)c(Nc2ccccc2P(C)(C)=O)n1` ?
FALSE

Threshold query (drug sensitivity score >= 4) on `CN(C)C(=O)c1ccc(S(=O)(=O)c2ccc(NC(=O)[C@@](C)(O)C(F)(F)F)c(Cl)c2)cc1`
FALSE

Assess whether reported drug sensitivity score for `CO[C@@H]1[C@H](N(C)C(=O)c2ccccc2)C[C@H]2O[C@]1(C)n1c3ccccc3c3c4c(c5c6ccccc6n2c5c31)C(=O)NC4` sits at 4 or higher.
TRUE

// inclusive: drug sensitivity score at least 4? input: CN1CCN(C2CCC(n3cc(-c4ccc(Oc5ccccc5)cc4)c4c(N)ncnc43)CC2)CC1 (stereo not drawn)
TRUE

Answer whether drug sensitivity score of `COc1ccc(Cn2ccc3ccc(C(=O)NO)cc32)cc1` is greater than or equal to 4.
FALSE

Quick check: does `COc1cc2/c(=N/c3ccc(Br)cc3F)nc[nH]c2cc1OCC1CCN(C)CC1` have drug sensitivity score greater than or equal to 4?
FALSE

Is drug sensitivity score at least 4? Consider `C[C@]12C=CC(=O)C=C1CC[C@@H]1[C@@H]2[C@@H](O)C[C@@]2(C)[C@H]1CC[C@]2(O)C(=O)CO`
FALSE

Given the entry Clc1ccc(C(c2ccccc2Cl)C(Cl)Cl)cc1 (stereo not drawn) , answer whether its drug sensitivity score meets or surpasses 4.
FALSE

Hi, just wondering whether `N#Cc1ccnc(N2C(=O)CC[C@H]2C(=O)N(c2cncc(F)c2)[C@H](C(=O)NC2CC(F)(F)C2)c2ccccc2Cl)c1` shows drug sensitivity score of 4 or higher.
FALSE

Is drug sensitivity score at least 4? Consider `CO[C@H]1C[C@@H]2CC[C@@H](C)[C@@](O)(O2)C(=O)C(=O)N2CCCC[C@H]2C(=O)O[C@H]([C@H](C)C[C@@H]2CC[C@@H](OC(=O)C(C)(CO)CO)[C@H](OC)C2)CC(=O)[C@H](C)/C=C(\C)[C@@H](O)[C@@H](OC)C(=O)[C@H](C)C[C@H](C)/C=C/C=C/C=C/1C`
TRUE

Hi, just wondering whether `COc1cc2c(NC3CCN(C(C)C)CC3)nc(N3CCC(F)(F)CC3)nc2cc1OCCCN1CCCC1` shows drug sensitivity score of 4 or higher.
FALSE

# bool: drug sensitivity score of `COc1cc(C(=O)O)ccc1NC(=O)[C@@H]1N[C@@H](CC(C)(C)C)[C@](C#N)(c2ccc(Cl)cc2F)[C@H]1c1cccc(Cl)c1F` >= 4
FALSE

Item `CC[C@H](C)C(=O)O[C@H]1C[C@H](O)C=C2C=C[C@H](C)[C@H](CC[C@@H](O)C[C@@H](O)CC(=O)O)[C@H]21` with drug sensitivity score of 4 or above?
FALSE

Form field: drug sensitivity score at least 4? Entry: `CNC(=O)c1nn(C)c2c1C(C)(C)Cc1cnc(Nc3ccc(N4CCN(C)CC4)cc3)nc1-2`
TRUE

Does the compound `C=CC(=O)N1CCC(Oc2cc3c(Nc4ccc(Cl)c(Cl)c4F)ncnc3cc2OC)CC1` have recorded drug sensitivity score that is 4 or more?
TRUE

Tell me whether drug sensitivity score is at least 4 here: `COc1cc2c(Oc3ccc4[nH]c(C)cc4c3F)ncnc2cc1OCCCN1CCCC1`
FALSE

Identify whether the reported drug sensitivity score of the following compound is 4 or greater: `Cc1cc(Nc2nc(N[C@@H](C)c3ncc(F)cn3)ncc2Cl)[nH]n1`
FALSE

Reported drug sensitivity score reaches at least 4 for `CCOCc1nc2c(N)nc3ccccc3c2n1CC(C)(C)O` ?
FALSE

API: above_or_equal(metric=drug sensitivity score, cutoff=4) for item `COc1cc(N2CCC(N3CCN(C)CC3)CC2)ccc1Nc1ncnc(Nc2ccccc2S(=O)(=O)C(C)C)n1`
TRUE
